SUBJECT_OF_TEST: GlcNAc(b1-3)Gal(b1-4)GlcNAc(b1-2)[GlcNAc(b1-3)Gal(b1-4)GlcNAc(b1-6)]Man(a1-6)[GlcNAc(b1-3)Gal(b1-4)GlcNAc(b1-2)Man(a1-3)]Man(b1-4)GlcNAc(b1-4)GlcNAc
TEST_SUMMARY: glycan array binding signal (z-score within array); higher = stronger binding
STUDY_CONDITIONS: glycan notation: IUPAC condensed, linker removed
The entries come from a sample that favours the strongest signals as a whole.
ASSAY_ENDPOINT: glycan array binding signal (z-score)

Name the recorded glycan array binding signal (z-score) for DC-Sign-R (Homo sapiens), Q9H2X3 (protein) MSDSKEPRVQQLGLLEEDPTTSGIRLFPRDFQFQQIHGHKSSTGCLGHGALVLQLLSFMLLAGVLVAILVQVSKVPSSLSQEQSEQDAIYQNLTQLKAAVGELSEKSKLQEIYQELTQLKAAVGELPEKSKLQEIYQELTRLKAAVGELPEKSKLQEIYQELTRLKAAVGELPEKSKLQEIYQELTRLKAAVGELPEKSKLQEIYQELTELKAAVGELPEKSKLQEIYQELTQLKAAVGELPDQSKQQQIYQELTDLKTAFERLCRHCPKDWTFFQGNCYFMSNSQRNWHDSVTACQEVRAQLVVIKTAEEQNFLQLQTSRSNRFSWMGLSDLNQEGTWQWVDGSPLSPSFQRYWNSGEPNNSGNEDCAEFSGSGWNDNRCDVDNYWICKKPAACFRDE .
2.48

Next: Arath Fbox (Arabidopsis thaliana), NP_178341.1 (protein) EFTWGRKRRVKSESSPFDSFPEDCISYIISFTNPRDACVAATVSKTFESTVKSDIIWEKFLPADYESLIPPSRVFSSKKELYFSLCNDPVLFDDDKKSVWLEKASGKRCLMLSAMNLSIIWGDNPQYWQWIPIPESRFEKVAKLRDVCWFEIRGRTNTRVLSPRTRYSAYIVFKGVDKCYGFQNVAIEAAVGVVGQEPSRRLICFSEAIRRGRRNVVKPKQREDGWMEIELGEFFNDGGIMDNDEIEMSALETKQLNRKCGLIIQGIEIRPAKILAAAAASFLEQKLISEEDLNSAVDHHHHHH
0.161

Next: XTP3-B-MRH2 (Homo sapiens), Q96DZ1 (protein) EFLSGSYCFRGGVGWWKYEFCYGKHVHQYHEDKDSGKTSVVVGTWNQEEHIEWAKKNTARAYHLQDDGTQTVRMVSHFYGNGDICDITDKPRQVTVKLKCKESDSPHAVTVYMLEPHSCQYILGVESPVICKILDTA
0.276

Reference for the values: the supplement of paper PMC8728848
